Entry source: ChEMBL document CHEMBL1158212

Catalogue of compounds with associated LC50
experiment: Toxicity in Artemia salina; assay type: organism-based; details: in vivo
PARAMETER: LC50 (ng/mL)

COMPOUND	VALUE UNITS	MEAS VALUE
CCCCCCCCCC[C@H](O)[C@H]1CC[C@H]([C@H]2CC[C@H]([C@H](O)CCCCCCCCCC[C@@H](O)CC3=C[C@H](C)OC3=O)O2)O1 [BULLATACIN]	ng/mL	1.59
COc1cccc2c1C(=O)c1c(O)c3c(c(O)c1C2=O)C[C@@](O)(C(=O)CO)C[C@@H]3O[C@H]1C[C@H](N)[C@H](O)[C@H](C)O1 [DOXORUBICIN]	ng/mL	257
CCCCCCCCCCCC[C@H](O)[C@H]1CC[C@H]([C@H]2CC[C@H]([C@H](O)CCCCCCCC[C@@H](O)CC3=C[C@H](C)OC3=O)O2)O1 [SQUAMOTACIN]	ng/mL	6.8
